- Experiment: qHTS assay to identify small molecule antagonists of the thyroid receptor (TR) signaling pathway (AID 743065); further: nearly all actives have a fitted effect of over 55% in size
- Test Context: GH3.TRE-Luc, T3-stimulated luciferase inhibition, 23.5 h; series mostly up to 70.3 µM
Results filed as inconclusive are left out. Active and inactive are the calls of the source. The call rests on the fitted dose curve; in most records, active means well fitted inhibition curve with a large enough effect in the repeat runs; inconclusive means weak or mixed curves; inactive means no such curve, though single readings can be large or run the other way.
Use one of these outcomes when replying: active, inactive

Example cases with answers are listed next.
CO/N=C(\C(=O)N[C@@H]1C(=O)N2C(C(=O)[O-])=C(C[n+]3cccc4c3CCC4)CS[C@H]12)c1csc(N)n1	inactive
CCc1cn([C@H]2C[C@H](O)[C@@H](CO)O2)c(=O)[nH]c1=O	inactive
C1CCc2nnnn2CC1	inactive
NC(=S)NS(=O)(=O)c1ccc(N)cc1	inactive
COC(=O)C(CN)c1c[nH]c2ccc(OC)cc12 (stereo not given)	inactive
C[C@H](O)CN(C)C	inactive
NC(=O)[C@@H]1CCCN1C(=O)[C@H](Cc1cnc[nH]1)NC(=O)[C@@H]1CCC(=O)N1	inactive
C/C(=C\C(=O)OCCCCCCCCC(=O)O)C[C@@H]1OC[C@H](C[C@@H]2O[C@H]2[C@@H](C)[C@H](C)O)[C@@H](O)[C@H]1O	inactive
C=CCN1C(=O)C(CC(C)C)NC1=S (stereo not given)	inactive
CCCCC/C=C\C=C\C(=O)OCC	active

Task item: Record lookup: outcome of this test for CCOc1ccc(S(=O)(=O)O)c2cccnc12 ?
Reply: inactive

Task item: In this assay, the call recorded for CC(C)C[C@@H](NC(=O)[C@@H](O)[C@H](N)Cc1ccccc1)C(=O)O was what?
Reply: inactive

Task item: Recorded test call requested for NC[C@@H]1CC[C@@H](N)[C@@H](O[C@H]2[C@H](O)[C@@H](O[C@H]3O[C@H](CO)[C@@H](O)[C@H](N)[C@H]3O)[C@H](N)C[C@@H]2N)O1
Reply: inactive

Task item: Dear all, I need the recorded test outcome for COc1ccc(/C=N/NC(=O)c2ccncc2)c(C(=O)O)c1OC , thank you.
Reply: inactive

Task item: What is the recorded call for this compound in the test? CCOc1ccc([N+](=O)[O-])cc1
Reply: active

Task item: Check the results log: what was the call for CC(C)CCC[C@@H](C)[C@H]1CC[C@H]2[C@@H]3CC=C4C[C@@H](O)CC[C@]4(C)[C@H]3CC[C@]12C ?
Reply: inactive

Task item: Which outcome did this test record for the compound Oc1ccc(Cl)c2c1CCC2 ?
Reply: inactive

Task item: Field: outcome | Entry: CC(=O)OCC(=O)[C@@]1(O)CC[C@H]2[C@@H]3C[C@H](C)C4=CC(=O)C=C[C@]4(C)[C@H]3[C@@H](O)C[C@@]21C
Reply: inactive

Task item: What outcome does the record of this test show for CCN(CC)C(=O)c1cccnc1 ?
Reply: inactive

Task item: Kindly provide the recorded test outcome for the following compound: N[C@H](C(=O)O)[C@@H]1CC(Cl)=NO1
Reply: active

Task item: Short answer needed: outcome of this test for O=C(O)c1cc2cc(Cc3cccnc3)ccc2o1 ?
Reply: inactive

Task item: Please share the test call associated with NC(N)=NCCCCN=C(N)N .
Reply: inactive

Task item: Please let me know the test result on file for CO/N=C(\C(=O)N[C@@H]1C(=O)N2C(C(=O)O)=C(COC(C)=O)CS[C@H]12)c1csc(N)n1 (stereo in doubt) .
Reply: inactive

Task item: What classification did O=C(O)c1ccc(NC2OC[C@@H](O)[C@H](O)[C@H]2O)cc1 (stereo not given in full) end up with in this test?
Reply: inactive

Task item: Write down the call the test reported for this compound. Item: C=CC1=C(C(=O)O)N2C(=O)[C@@H](NC(=O)/C(=N/OCC(=O)O)c3csc(N)n3)[C@H]2SC1 (stereo in doubt)
Reply: inactive

Task item: Dear all, I need the recorded test outcome for CC(=O)OCC(=O)[C@@]1(O)CC[C@H]2[C@@H]3CCC4=CC(=O)CC[C@]4(C)C3=CC[C@@]21C , thank you.
Reply: inactive

Task item: Tell me the recorded outcome of this test for Nc1c(CC(=O)O)cccc1C(=O)c1ccccc1 .
Reply: inactive

Task item: What did this assay record as the result for CC(=NCc1ccccc1)c1ccccc1O ?
Reply: inactive

Task item: Recorded test call requested for O=C(O)c1cc(O)c2c(c1)[C@H]([C@H]1c3cc(C(=O)O)cc(O)c3C(=O)c3c(O[C@@H]4O[C@H](CO)[C@@H](O)[C@H](O)[C@H]4O)cccc31)c1cccc(O[C@@H]3O[C@H](CO)[C@@H](O)[C@H](O)[C@H]3O)c1C2=O
Reply: inactive

Task item: Call for entry CC1=C(/C=C/C(C)=C/C=C/C(C)=C\C(=O)O)C(C)(C)CCC1 :
Reply: active
